target: T1, Cynomolgus CD3 on Cyno CD3+ Jurkat cells (cynomolgus, UniProt Q95LI5 22-198); experiment: cell binding, cyno CD3+ Jurkat cells
T1 construct: whole, on cells; CD3 on cells; also called cCD3
T1 sequence (Q95LI5 22-198): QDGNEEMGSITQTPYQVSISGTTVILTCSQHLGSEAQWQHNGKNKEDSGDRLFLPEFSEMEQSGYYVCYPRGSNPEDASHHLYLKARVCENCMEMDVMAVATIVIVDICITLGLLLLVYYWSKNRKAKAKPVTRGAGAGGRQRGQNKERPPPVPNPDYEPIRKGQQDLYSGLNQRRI
# reported Cell Binding Fold Over Background (FOB); entries follow
Give the value, in units of FOB, as a plain number.

// worked examples, Cell Binding Fold Over Background (FOB) included
- Binder: "ADI-46366 (antibody, V domains shown, also called Ab50) VH: QVQLVQSGAEVKKPGASVKVSCKASGFNIKDYYMHWVRQAPGQRLEWIGWIDLENANTVYDAKFQGRVTITRDTSASTAYMELSSLRSEDTAVYYCARDAYGQYFYDVWGQGTLVTVSS VL: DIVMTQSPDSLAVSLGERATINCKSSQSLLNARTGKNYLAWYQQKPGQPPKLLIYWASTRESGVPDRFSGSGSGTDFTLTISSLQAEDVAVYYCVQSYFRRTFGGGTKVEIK"
  Result Number: 32
- Binder: "ADI-46378 (antibody, V domains shown, also called Ab40) VH: QVQLVQSGAEVKKPGASVKVSCKASGFNIKDYYMHWVRQAPGQRLEWIGWIDLENANTVYDAKFQGRVTITRDTSASAAYMELSSLRSEDTAVYYCARDAYGRYFYDVWGQGTLVTVSS VL: DIVMTQSPDSLAVSLGERATINCKSSQSLLNARTRKNYLAWYQQKPGRPPKLLIYWASTRESGVPDRFSGSGSGTDFTLTISSLQAEDVAVYYCVQSYFRRTFGGGTKVEIK"
  Result Number: 30

Could you now consider this next binder?
Input ADI-42594 (antibody, V domains shown, also called Ab1) VH: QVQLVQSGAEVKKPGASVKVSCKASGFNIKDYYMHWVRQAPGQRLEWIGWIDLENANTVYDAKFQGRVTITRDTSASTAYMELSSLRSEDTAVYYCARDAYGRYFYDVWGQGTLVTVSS VL: DIVMTQSPDSLAVSLGERATINCKSSQSLLNARTGKNYLAWYQQKPGQPPKLLIYWASTRESGVPDRFSGSGSGTDFTLTISSLQAEDVAVYYCKQSYFRRTFGGGTKVEIK . Output Cell Binding Fold Over Background (FOB): 16

Every entry's value here was drawn from patent US20260209352A1.
